assay: Plasma concentration versus time of Compound I and metabolite Compound III in patients dosed QD or BID with Form B of Compound II plus fulvestrant; format: in vivo, human; settings: human, plasma, oral, 100 mg, Cohort 6, 100 mg BID of Form B, Day 29, 10.0 h; read-out: Compound I Concentration, Max
Observed property: concentration at 10 h (ng/mL)
Give the value in ng/mL but do not write ng/mL after it.

Exam item: For CC(C)N1CCN(c2ccc(Nc3ncc4cc5n(c4n3)C3(CCCCC3)CNC5=O)nc2)CC1 [Compound I] , what is its reported concentration at 10 h?
Marked response: 11.4

---

assay: Noncompartmental pharmacokinetic parameters (Cmax, Tmax, AUC, Racc) in QD and BID cohorts of Form B; assay type: in vivo, human; settings: human, plasma, oral, 200 mg, Compound III; 200 mg QD of Form B; Cohort 1; Day 1; read-out: Cmax (Median)
Observed property: Cmax (ng/mL)
Give the value in ng/mL but do not write ng/mL after it.

Exam item: For `O=C1NCC2(CCCCC2)n2c1cc1cnc(Nc3ccc(N4CCNCC4)cn3)nc12` , what is its reported Cmax?
Marked response: 3.88
